target: ERBIN PDZ-GST fusion protein (aa. 1217-1371 of SEQ ID NO:201) (human, UniProt P08515 1-218 = GST); assay: competition ELISA: ERBIN PDZ-GST binding to immobilized biotin-WETWV
Sequence (P08515 whole entry, the tested form may be a part): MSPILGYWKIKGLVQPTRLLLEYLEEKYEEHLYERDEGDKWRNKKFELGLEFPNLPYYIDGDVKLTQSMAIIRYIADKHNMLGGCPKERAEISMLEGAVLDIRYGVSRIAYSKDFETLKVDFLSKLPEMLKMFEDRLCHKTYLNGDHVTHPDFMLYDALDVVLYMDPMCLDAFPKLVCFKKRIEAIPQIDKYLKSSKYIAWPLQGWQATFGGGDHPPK
pIC50: −log10 of the molar value. Where no end group is shown, it is not given here.

{"binder": "Ac-WEAWV [Ac-WEAWV]", "pIC50": 4.91}
{"binder": "Ac-WETAV [Ac-WETAV]", "pIC50": 4.47}
{"binder": "Ac-AETWV [Ac-AETWV]", "pIC50": 5.40}
{"binder": "Ac-WATWV [Ac-WATWV]", "pIC50": 4.83}
